# Target Desc: muscle-type nicotinic acetylcholine receptor from Torpedo californica electric organ (Torpedo californica (endogenous in electric organ))
# Sequence (P02710 25-461 limits assumed, chain 1 of 4): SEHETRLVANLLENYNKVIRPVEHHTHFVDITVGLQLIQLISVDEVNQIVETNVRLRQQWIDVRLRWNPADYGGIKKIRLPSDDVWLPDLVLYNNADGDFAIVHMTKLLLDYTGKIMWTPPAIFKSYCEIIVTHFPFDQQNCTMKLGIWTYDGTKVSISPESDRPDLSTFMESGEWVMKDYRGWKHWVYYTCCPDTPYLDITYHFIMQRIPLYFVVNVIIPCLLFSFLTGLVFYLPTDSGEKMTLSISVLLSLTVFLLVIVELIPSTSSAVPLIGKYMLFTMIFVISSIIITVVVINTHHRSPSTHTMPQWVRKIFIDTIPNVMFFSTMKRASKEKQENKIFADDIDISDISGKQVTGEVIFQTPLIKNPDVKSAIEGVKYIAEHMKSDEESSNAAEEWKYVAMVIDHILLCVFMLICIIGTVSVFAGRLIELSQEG
# Sequence (P02712 25-493 limits assumed, chain 2 of 4, further chain): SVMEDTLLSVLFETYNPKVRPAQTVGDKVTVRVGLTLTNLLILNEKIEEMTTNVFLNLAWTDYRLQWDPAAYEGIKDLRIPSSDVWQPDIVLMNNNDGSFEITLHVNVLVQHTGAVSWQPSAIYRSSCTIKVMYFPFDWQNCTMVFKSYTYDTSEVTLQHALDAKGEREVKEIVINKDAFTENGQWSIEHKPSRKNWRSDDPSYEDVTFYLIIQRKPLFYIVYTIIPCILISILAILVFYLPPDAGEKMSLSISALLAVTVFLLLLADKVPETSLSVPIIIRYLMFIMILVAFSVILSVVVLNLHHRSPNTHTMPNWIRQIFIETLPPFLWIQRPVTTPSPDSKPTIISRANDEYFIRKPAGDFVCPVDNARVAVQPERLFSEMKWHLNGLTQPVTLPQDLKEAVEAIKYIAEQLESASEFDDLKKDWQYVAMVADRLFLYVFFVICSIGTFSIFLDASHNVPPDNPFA
# Sequence (P02714 18-506 limits assumed, chain 3 of 4, further chain): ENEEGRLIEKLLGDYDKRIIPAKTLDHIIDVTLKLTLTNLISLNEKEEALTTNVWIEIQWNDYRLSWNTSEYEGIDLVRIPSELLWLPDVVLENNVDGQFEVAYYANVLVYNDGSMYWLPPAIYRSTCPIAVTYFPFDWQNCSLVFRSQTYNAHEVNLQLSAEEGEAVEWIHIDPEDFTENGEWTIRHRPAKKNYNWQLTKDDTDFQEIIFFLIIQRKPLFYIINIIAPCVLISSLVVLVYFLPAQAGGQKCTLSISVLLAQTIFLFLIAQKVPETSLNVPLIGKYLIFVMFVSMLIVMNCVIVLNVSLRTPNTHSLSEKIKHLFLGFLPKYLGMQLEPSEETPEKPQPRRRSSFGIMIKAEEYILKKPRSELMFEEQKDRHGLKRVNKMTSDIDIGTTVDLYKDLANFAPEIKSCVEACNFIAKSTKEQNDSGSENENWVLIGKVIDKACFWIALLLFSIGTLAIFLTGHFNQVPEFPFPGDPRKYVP
# Sequence (P02718 22-522 limits assumed, chain 4 of 4, further chain): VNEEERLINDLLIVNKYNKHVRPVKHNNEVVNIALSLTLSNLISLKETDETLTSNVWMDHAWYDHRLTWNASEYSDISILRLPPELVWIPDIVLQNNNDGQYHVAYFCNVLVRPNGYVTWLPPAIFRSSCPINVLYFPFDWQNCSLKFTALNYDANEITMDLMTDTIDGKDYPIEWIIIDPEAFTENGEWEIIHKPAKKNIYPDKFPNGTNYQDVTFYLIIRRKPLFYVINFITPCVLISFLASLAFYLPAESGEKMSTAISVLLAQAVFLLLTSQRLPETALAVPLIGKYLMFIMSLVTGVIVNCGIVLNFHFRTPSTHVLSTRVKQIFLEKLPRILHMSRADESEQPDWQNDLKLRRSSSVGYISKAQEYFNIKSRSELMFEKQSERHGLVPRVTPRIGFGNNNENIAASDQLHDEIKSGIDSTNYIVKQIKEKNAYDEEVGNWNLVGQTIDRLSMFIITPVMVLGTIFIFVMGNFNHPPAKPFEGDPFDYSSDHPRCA
# Measurement Description: radioligand binding
No end group written: not given here.
Examples of binders with documented IC50 follow.
Measured Parameter: IC50 (nM)

{"Binder": "DNWWPKPPHQGPRPPRPRPKP-NH2 (also: one p-HOBDI-BF2 label, position not given here)", "Reported Value": 210}
{"Binder": "DNWWPKPPHQGPRPPRPRPKP-NH2 [azemiopsin]", "Reported Value": 7.3}
{"Binder": "DNWWPKPPHQGPRPPRPRPKP-NH2 (also: one p-HOBDI-BF2 label, position not given here) [Fraction 5 of p-HOBDI-BF2-modified azemiopsin (mono-modified product)]", "Reported Value": 128}

Origin of measurements: paper PMC8671107
